// reported growth inhibition for each item listed
assay notes: NCI Yeast Anticancer Drug Screen. Data for the rad50 strain (AID 155);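 also: 0% = growth of vehicle-only cultures of the same strain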
conditions used: S. cerevisiae rad50 strain growth inhibition; at 50.0 µM; active compounds read high
The panel holds about 79,000 compounds, 15% with a hit somewhere; the sample as a whole holds those more often.
Give the value in % but do not write % after it.

Would you please look over these solved cases?
- molecule: "COc1ccc(C2=CSC3=NC(C)(C)CC(C)=NN23)cc1"
  value reported: -16.8
- molecule: "O=C1CCC(=O)N2C(=O)CCC(=O)N12"
  value reported: -33.5
- molecule: "Nc1cc2c(cc1Br)-c1ccc(Br)cc1C2=O"
  value reported: -6.65
- molecule: "O=C(c1ccccc1)C1C(C(=O)c2ccccc2)C(c2ccccc2)N(c2ccccc2)C1c1ccccc1 (centres undefined)"
  value reported: 27.4
- molecule: "COc1cccc2c1OC(=O)C(S(=O)(=O)c1ccccc1)C2 (centres undefined)"
  value reported: -7.8
- molecule: "NC(=O)c1n[nH]n(-c2ccccc2)c1=O"
  value reported: -13.2

Can you share its growth inhibition? I mean this molecule: COC(=O)/C(=C\c1ccccc1N)c1cc2c(cc1Br)OCO2
84.2
